Assay: Half life in male Crl:CD Sprague-Dawley rat at 40 to 80 mg/kg/day, po or iv measured after 28 days
Assay type: ADME, organism-based
Condition Details: in vivo, dose 40-80 mg/kg/day, time 28 day

Smiles Record	half-life
COc1ccc(/C=C/c2nc(NCCCN(C)C)c3ccccc3n2)cc1	14 h
